test summary: Mouse plasma protein binding
Type: in vitro ADME
property label: fraction unbound
Provide a numeric answer; units are not to be included.

May I ask what fraction unbound has been recorded for c1ccc(Cn2c(N3CCCC3)nc3ccccc32)cc1 ?
0.036

May I ask what fraction unbound has been recorded for Fc1cc(Cl)ccc1Cn1c(N2CCCC2)nc2ccccc21 ?
0.0217

May I ask what fraction unbound has been recorded for CCCNc1nc2ccccc2n1Cc1ccccc1 ?
0.108

May I ask what fraction unbound has been recorded for N#Cc1cc(Cn2c(N3CCCC3)nc3ccccc32)ccc1F ?
0.053

May I ask what fraction unbound has been recorded for Clc1ccc(Cn2c(N3CCCC3)nc3ccccc32)cc1 ?
0.013

May I ask what fraction unbound has been recorded for CCCNc1nc2ccccc2n1Cc1ccc(Cl)cc1 ?
0.036

* * *

test summary: Mouse liver microsome stability
Format: in vitro ADME
measurement conditions: liver microsomes
property label: CLint scaled
Note: a bare number is incomplete; add the unit.

May I ask what CLint scaled has been recorded for CCCNc1nc2ccccc2n1Cc1ccccc1 ?
796 mL/min/kg

May I ask what CLint scaled has been recorded for Clc1ccc(Cn2c(N3CCCC3)nc3ccccc32)cc1 ?
4260 mL/min/kg

May I ask what CLint scaled has been recorded for Fc1cc(Cl)ccc1Cn1c(N2CCCC2)nc2ccccc21 ?
3200 mL/min/kg

May I ask what CLint scaled has been recorded for CCCNc1nc2ccccc2n1Cc1ccc(Cl)cc1 ?
867 mL/min/kg

May I ask what CLint scaled has been recorded for N#Cc1cc(Cn2c(N3CCCC3)nc3ccccc32)ccc1F ?
370 mL/min/kg

May I ask what CLint scaled has been recorded for c1ccc(Cn2c(N3CCCC3)nc3ccccc32)cc1 ?
530 mL/min/kg

* * *

test summary: Human plasma protein binding
Format: in vitro ADME
Please provide measured fraction unbound for the entries that follow.
Provide a numeric answer; units are not to be included.

May I ask what fraction unbound has been recorded for CCCNc1nc2ccccc2n1Cc1ccccc1 ?
0.041

May I ask what fraction unbound has been recorded for c1ccc(Cn2c(N3CCCC3)nc3ccccc32)cc1 ?
0.044

May I ask what fraction unbound has been recorded for N#Cc1cc(Cn2c(N3CCCC3)nc3ccccc32)ccc1F ?
0.068

May I ask what fraction unbound has been recorded for CCCNc1nc2ccccc2n1Cc1ccc(Cl)cc1 ?
0.014

May I ask what fraction unbound has been recorded for Clc1ccc(Cn2c(N3CCCC3)nc3ccccc32)cc1 ?
0.013

May I ask what fraction unbound has been recorded for Fc1cc(Cl)ccc1Cn1c(N2CCCC2)nc2ccccc21 ?
0.01

* * *

test summary: In vivo rat cassette PK
measurement conditions: rat, in vivo, intravenous, 0.25 mg/kg
Please provide measured C0 for the entries that follow.
// units = ng/mL; emit number, no label

May I ask what C0 has been recorded for N#Cc1cc(Cn2c(N3CCCC3)nc3ccccc32)ccc1F ?
221

May I ask what C0 has been recorded for CCCNc1nc2ccccc2n1Cc1ccc(Cl)cc1 ?
140

* * *

Please provide measured AUC for the entries that follow.
test summary: In vivo rat cassette PK
measurement conditions: rat, plasma, intravenous, 0.25 mg/kg
// units = ng·h/mL; emit number, no label

May I ask what AUC has been recorded for CCCNc1nc2ccccc2n1Cc1ccc(Cl)cc1 ?
291

May I ask what AUC has been recorded for N#Cc1cc(Cn2c(N3CCCC3)nc3ccccc32)ccc1F ?
262

* * *

test summary: Human liver microsome stability
Format: in vitro ADME
measurement conditions: liver microsomes
property label: hCLHEP (mL/min/kg)
// units = mL/min/kg; emit number, no label

May I ask what hCLHEP has been recorded for CCCNc1nc2ccccc2n1Cc1ccc(Cl)cc1 ?
17.4

May I ask what hCLHEP has been recorded for N#Cc1cc(Cn2c(N3CCCC3)nc3ccccc32)ccc1F ?
13.2

May I ask what hCLHEP has been recorded for c1ccc(Cn2c(N3CCCC3)nc3ccccc32)cc1 ?
17.9

May I ask what hCLHEP has been recorded for Fc1cc(Cl)ccc1Cn1c(N2CCCC2)nc2ccccc21 ?
18.5

May I ask what hCLHEP has been recorded for CCCNc1nc2ccccc2n1Cc1ccccc1 ?
16.8

May I ask what hCLHEP has been recorded for Clc1ccc(Cn2c(N3CCCC3)nc3ccccc32)cc1 ?
18.7
